system: HCT-116; experiment: Cytotoxicity against human HCT116 cells after 96 hrs by SRB assay; assay type: functional, cell-based; details: Homo sapiens, HCT-116, 96 h; read-out: IC50
Please provide measured pIC50 for the entries that follow.
pIC50 is defined as minus the log10 of a concentration measured in mol/L.

Tested system HCT-116; pIC50 recorded for `C=C1C[C@]2(C)[C@H]3CC[C@@H]4[C@H]5[C@H](C(=C)C)CC[C@]5(C(=O)OC)CC[C@@]4(C)[C@]3(C)CC[C@H]2C(C)(C)C1=O` was 5.35

The recorded pIC50 with HCT-116 for `C=C(C)[C@@H]1CC[C@]2(C(=O)OC)CC[C@]3(C)[C@H](CC[C@@H]4[C@@]5(C)C[C@@H](CS(=O)(=O)CCO)C(=O)C(C)(C)[C@@H]5CC[C@]43C)[C@@H]12` was 5.55

Hey, HCT-116 data for `C=C1C[C@]2(C)[C@H]3CC[C@@H]4[C@H]5[C@H](C(=C)C)CC[C@]5(C(=O)O)CC[C@@]4(C)[C@]3(C)CC[C@H]2C(C)(C)C1=O` : pIC50 came out at 6.70

# value of pIC50, HCT-116, item `C=C(C)[C@@H]1CC[C@]2(C(=O)OC)CC[C@]3(C)[C@H](CC[C@@H]4[C@@]5(C)C/C(=C\C)C(=O)C(C)(C)[C@@H]5CC[C@]43C)[C@@H]12` = 4.62

Known value: HCT-116 pIC50 of the compound `C=C1C[C@]2(C)[C@H]3CC[C@@H]4[C@H]5[C@H](C(=C)C)CC[C@]5(C(=O)N5CCSCC5)CC[C@@]4(C)[C@]3(C)CC[C@H]2C(C)(C)C1=O` equals 5.89

I looked up `C=C(C)[C@@H]1CC[C@]2(C(=O)OC)CC[C@]3(C)[C@H](CC[C@@H]4[C@@]5(C)C[C@@H](CSCCO)C(=O)C(C)(C)[C@@H]5CC[C@]43C)[C@@H]12` and its pIC50 for HCT-116 was 5.72

With HCT-116 as the test system, `C=C/C=C1/C[C@]2(C)[C@H]3CC[C@@H]4[C@H]5[C@H](C(=C)C)CC[C@]5(C(=O)OC)CC[C@@]4(C)[C@]3(C)CC[C@H]2C(C)(C)C1=O` showed pIC50 of 4.84

Tested on HCT-116: `C=C1C[C@]2(C)[C@H]3CC[C@@H]4[C@H]5[C@H](C(=C)C)CC[C@]5(C=O)CC[C@@]4(C)[C@]3(C)CC[C@H]2C(C)(C)C1=O` . Observed pIC50: 5.49

* * *

assay: Cytotoxicity against human 518A2 cells after 96 hrs by SRB assay; assay type: functional, cell-based; details: Homo sapiens, 518A2, 96 h; read-out: IC50
assayReadout: IC50 (µM)
A number alone suffices; assume µM.

Documented IC50 of `C=C/C=C1/C[C@]2(C)[C@H]3CC[C@@H]4[C@H]5[C@H](C(=C)C)CC[C@]5(C(=O)OC)CC[C@@]4(C)[C@]3(C)CC[C@H]2C(C)(C)C1=O` : 11.5

Documented IC50 of `C=C1C[C@]2(C)[C@H]3CC[C@@H]4[C@H]5[C@H](C(=C)C)CC[C@]5(C(=O)N5CCSCC5)CC[C@@]4(C)[C@]3(C)CC[C@H]2C(C)(C)C1=O` : 1.5

Where do the numbers come from? From ChEMBL document CHEMBL2034930.
